tested on: FaDu; experiment: Cytotoxicity against human FADU cells after 96 hrs by SRB assay; format: functional, cell-based
REPORTED_PROPERTY: IC50 (µM)

[[record]]
molecule = "C=C(C)[C@@H]1CC[C@]2(COC(=O)Nc3ccccc3)CC[C@]3(C)[C@H](CC[C@@H]4[C@@]5(C)CC[C@H](OC(=O)Nc6ccccc6)C(C)(C)[C@@H]5CC[C@]43C)[C@@H]12 [BIS(PHENYLCARBAMATE)BETULIN]"
reading_qualifier = ">"
observed_measurement = 100

[[record]]
molecule = "C=C(C)[C@@H]1CC[C@]2(C(=O)O)CC[C@]3(C)[C@H](CC[C@@H]4[C@@]5(C)CC[C@H](OC(=O)Nc6ccccc6)C(C)(C)[C@@H]5CC[C@]43C)[C@@H]12"
reading_qualifier = "="
observed_measurement = 24.2

[[record]]
molecule = "C=C(C)[C@@H]1CC[C@]2(COC(C)=O)CC[C@]3(C)[C@H](CC[C@@H]4[C@@]5(C)CC[C@H](OC(=O)NCC)C(C)(C)[C@@H]5CC[C@]43C)[C@@H]12"
reading_qualifier = "="
observed_measurement = 4.62

[[record]]
molecule = "C=C(C)[C@@H]1CC[C@]2(COC(=O)NCC)CC[C@]3(C)[C@H](CC[C@@H]4[C@@]5(C)CC[C@H](OC(=O)NCC)C(C)(C)[C@@H]5CC[C@]43C)[C@@H]12 [BIS(ETHYLCARBAMATE)BETULIN]"
reading_qualifier = "="
observed_measurement = 7.88

[[record]]
molecule = "C=C(C)[C@@H]1CC[C@]2(C(=O)O)CC[C@]3(C)[C@H](CC[C@@H]4[C@@]5(C)CC[C@H](OC(=O)NCC)C(C)(C)[C@@H]5CC[C@]43C)[C@@H]12"
reading_qualifier = "="
observed_measurement = 13.8


---

Let's look at some compounds and their measured pIC50.
assay: Cytotoxicity against human 518A2 cells after 96 hrs by SRB assay; format: functional, cell-based; conditions: 518A2, 96 h
pIC50: −log10 of the molar value.
REPORTED_PROPERTY: pIC50

[[record]]
compound = "C=C(C)[C@@H]1CC[C@]2(C(=O)OC)CC[C@]3(C)[C@H](CC[C@@H]4[C@@]5(C)CC[C@H](OC(=O)NCC)C(C)(C)[C@@H]5CC[C@]43C)[C@@H]12"
reported_property = "pIC50"
reading_qualifier = "="
observed_measurement = 4.78

[[record]]
compound = "C=C(C)[C@@H]1CC[C@]2(COC(=O)Nc3ccccc3)CC[C@]3(C)[C@H](CC[C@@H]4[C@@]5(C)CC[C@H](OC(=O)Nc6ccccc6)C(C)(C)[C@@H]5CC[C@]43C)[C@@H]12 [BIS(PHENYLCARBAMATE)BETULIN]"
reported_property = "pIC50"
reading_qualifier = "<"
observed_measurement = 4.00

[[record]]
compound = "C=C(C)[C@@H]1CC[C@]2(COC(=O)NCC)CC[C@]3(C)[C@H](CC[C@@H]4[C@@]5(C)CC[C@H](OC(=O)NCC)C(C)(C)[C@@H]5CC[C@]43C)[C@@H]12 [BIS(ETHYLCARBAMATE)BETULIN]"
reported_property = "pIC50"
reading_qualifier = "="
observed_measurement = 5.09

[[record]]
compound = "C=C(C)[C@@H]1CC[C@]2(C(=O)OC)CC[C@]3(C)[C@H](CC[C@@H]4[C@@]5(C)CC[C@H](O)C(C)(C)[C@@H]5CC[C@]43C)[C@@H]12 [METHYL BETULINATE]"
reported_property = "pIC50"
reading_qualifier = "="
observed_measurement = 4.54

[[record]]
compound = "C=C(C)[C@@H]1CC[C@]2(C(=O)O)CC[C@]3(C)[C@H](CC[C@@H]4[C@@]5(C)CC[C@H](O)C(C)(C)[C@@H]5CC[C@]43C)[C@@H]12 [BETULINIC ACID]"
reported_property = "pIC50"
reading_qualifier = "="
observed_measurement = 5.09

[[record]]
compound = "C=C(C)[C@@H]1CC[C@]2(C(=O)OC)CC[C@]3(C)[C@H](CC[C@@H]4[C@@]5(C)CC[C@H](OC(=O)Nc6ccccc6)C(C)(C)[C@@H]5CC[C@]43C)[C@@H]12"
reported_property = "pIC50"
reading_qualifier = "<"
observed_measurement = 4.00

